Provide the reported Emax of each item.
Target: TREK-2 (Homo sapiens, UniProt P57789)
Sequence (P57789 whole entry): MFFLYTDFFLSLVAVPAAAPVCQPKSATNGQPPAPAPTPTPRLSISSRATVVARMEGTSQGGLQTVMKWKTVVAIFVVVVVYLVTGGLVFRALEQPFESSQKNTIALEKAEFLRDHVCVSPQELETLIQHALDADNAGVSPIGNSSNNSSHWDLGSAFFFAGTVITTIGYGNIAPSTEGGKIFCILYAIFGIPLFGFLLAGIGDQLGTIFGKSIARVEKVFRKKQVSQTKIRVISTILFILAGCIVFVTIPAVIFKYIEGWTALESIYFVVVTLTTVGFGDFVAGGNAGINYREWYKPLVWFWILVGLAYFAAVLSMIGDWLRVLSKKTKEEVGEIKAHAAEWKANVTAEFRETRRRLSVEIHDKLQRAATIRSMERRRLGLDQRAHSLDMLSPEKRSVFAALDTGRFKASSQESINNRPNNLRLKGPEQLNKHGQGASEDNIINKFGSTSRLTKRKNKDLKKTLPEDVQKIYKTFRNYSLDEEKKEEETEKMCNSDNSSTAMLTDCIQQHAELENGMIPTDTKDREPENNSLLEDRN
Test: TREK-2 thallium flux assay (hTREK-2/HEK)
Format: cell-based
Set-up: expressed in transfected cells; host or cells: HEK293
Details: % activation relative to 10 µM BL-1249
Give bare numbers, in %.

In the examples that follow, each entry is paired with its recorded Emax.
compound | Emax [%]
CS(=O)(=O)Nc1ccc(C(=O)NCc2ccc(Cl)cc2Cl)cc1 [Compound 13] | 155
COc1cc(OC(F)(F)F)ccc1CNC(=O)c1ccc(-n2cncn2)nc1 [Compound 14b] | 158
Cc1cc(OC(F)(F)F)ccc1CNC(=O)c1ccc2ncnn2c1 [Compound 19a] | 160
Cc1cc(OC(F)(F)F)ccc1CNC(=O)c1ccc(-n2cncn2)nc1 [Compound 14c] | 109

I have 2 compounds here; please give me Emax for each one.
1. O=C(NCc1ccc(Br)cc1Cl)c1ccc(-c2ncn[nH]2)cc1 [Compound 14a]
2. O=C(NCc1ccc(OC(F)(F)F)cc1F)c1ccc2ncnn2c1 [Compound 19b]

1: 183; 2: 184
